The reported numbers originate from the Kinase Knowledgebase extract (Sharma et al. 2016).

- measuredTarget: PIK3CB;PIK3CG;PIK3CD;PIK3CA (human) (UniProt P48736)
- methodSummary: Inhibition of PIK3CA/PIK3CB/PIK3CD/PIK3CG Kinase Activity
measuredQuantity: IC50 (nM)

Worked cases, answers included:
[[record]]
mol = "COC[C@H]1OC(=O)/C(=C/SC(C)C)C2=C(O)C(=O)C3=C([C@H](OC(C)=O)C[C@]4(C)C(=O)CC[C@@H]34)[C@]21C"
endpointvalue = 0.1

[[record]]
mol = "C=CCN/C=C1/C(=O)O[C@H](COC)[C@@]2(C)C1=C(O)C(=O)C1=C2[C@H](OC(C)=O)C[C@]2(C)C(=O)CC[C@@H]12"
endpointvalue = 7.5

[[record]]
mol = "COC[C@H]1OC(=O)/C(=C/NCCc2ccccc2)C2=C(O)C(=O)C3=C([C@H](OC(C)=O)C[C@]4(C)C(=O)CC[C@@H]34)[C@]21C"
endpointvalue = 2

[[record]]
mol = "C=CCN(/C=C1/C(=O)O[C@H](COC)[C@@]2(C)C1=C(O)C(=O)C1=C2[C@H](OC(C)=O)C[C@]2(C)C(=O)CC[C@@H]12)CC=C"
endpointvalue = 0.1

[[record]]
mol = "COC[C@H]1OC(=O)/C(=C/N2CCCC2)C2=C(O)C(=O)C3=C([C@H](OC(C)=O)C[C@]4(C)C(=O)CC[C@@H]34)[C@]21C"
endpointvalue = 1.1


I: COC[C@H]1OC(=O)/C(=C/N(Cc2ccccc2)Cc2ccccc2)C2=C(O)C(=O)C3=C([C@H](OC(C)=O)C[C@]4(C)C(=O)CC[C@@H]34)[C@]21C
II: COC[C@H]1OC(=O)/C(=C/NCCCN(C)C)C2=C(O)C(=O)C3=C([C@H](OC(C)=O)C[C@]4(C)C(=O)CC[C@@H]34)[C@]21C
III: COC[C@H]1OC(=O)/C(=C/NCC(N)=O)C2=C(O)C(=O)C3=C([C@H](OC(C)=O)C[C@]4(C)C(=O)CC[C@@H]34)[C@]21C
IV: COC[C@H]1OC(=O)/C(=C/N)C2=C(O)C(=O)C3=C([C@H](OC(C)=O)C[C@]4(C)C(=O)CC[C@@H]34)[C@]21C
IN: Number of compounds to sort: 4. Sort criterion: IC50, ascending. Respond with an ordered listing of the labels, as requested.
OUT: I, II, IV, III
